- System: IL-6 levels in human whole blood stimulated with a TLR2 agonist
- assayName: IRAK4 Whole Blood Assay (lipoteichoic acid/TLR2-stimulated IL-6)
- Assay type: cell-based
- conditionDetails: Homo sapiens, lipoteichoic acid 10 μg/mL, IL-6 readout
quantityMeasured: EC50 (nM)

a. C[C@@H](CO)Nc1cc(-c2cnn3cc(Cl)cnc23)ncc1C(=O)NC[C@@H](F)C(C)(C)O [Example 31]
b. CC(C)(O)[C@H](F)CNC(=O)c1cnc(-c2cnn3cc(Cl)cnc23)cc1Nc1cnn(C2CCOCC2)c1 [Example 52]
c. CC(C)Nc1cc(-c2cnn3cc(Cl)cnc23)ncc1C(=O)NC[C@@H](F)C(C)(C)OC(F)F [Example 157]
query: Order the entries above from lowest to highest EC50. Reply with the labels, ordered as the question asks.
result: a, b, c
(a: 140 nM, b: 280 nM, c: 930 nM)
